The reported numbers originate from the supplement of paper PMC7726561.

target-or-system: HLA-A*02:01;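 also: lysates heated 10 min at 37–73 °C, complexes pulled down with pan-HLA I antibody, peptide signal by DIA-MS relative to 37 °C, Tm where half the complex is unfolded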
test-protocol: thermal melting temperature (Tm) of peptide-HLA complex; higher = more thermostable pHLA complex
details: C1R-A*02:01
In all, about 1,100 sequences were measured (“thermal melting temperature (Tm) of peptide-HLA complex”: median about 58, lowest 2% from about 42 on). The sample as a whole holds a higher share of the lowest values than the screen did.
result-type: thermal melting temperature (°C)
Provide the reading as a plain figure in °C.

// recorded thermal melting temperature for HIADVSHFI : 55.3

// recorded thermal melting temperature for YPSEFATYL : 56.5

// recorded thermal melting temperature for FVADGIFKA : 41.1

// recorded thermal melting temperature for KLLWTTSRV : 60.1
